# assay_system: WWP2^HECT (Homo sapiens, UniProt O00308)
# Construct: GST-TEV (N, cleaved yes); made in house; host or cells: Escherichia coli BL21 (DE3)
# Sequence (O00308 492-865): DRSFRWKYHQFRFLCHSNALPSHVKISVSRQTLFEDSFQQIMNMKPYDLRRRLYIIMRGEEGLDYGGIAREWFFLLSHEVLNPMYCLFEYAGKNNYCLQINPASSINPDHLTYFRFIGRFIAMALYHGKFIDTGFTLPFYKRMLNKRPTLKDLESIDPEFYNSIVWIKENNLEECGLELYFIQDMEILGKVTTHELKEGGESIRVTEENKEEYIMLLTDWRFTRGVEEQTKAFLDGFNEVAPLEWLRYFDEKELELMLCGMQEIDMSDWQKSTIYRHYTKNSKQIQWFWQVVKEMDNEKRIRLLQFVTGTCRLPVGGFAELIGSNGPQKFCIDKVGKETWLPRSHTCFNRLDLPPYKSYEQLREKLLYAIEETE
# measurement_protocol: Naive Library Presenter Screening (phage, NGS), WWP2^HECT
# Format: binding
# settings: WWP2 target concentration 1000 nM, first column
Numbered stars: 1 amine (or outer) side, 2 acyl side, 3 side chain; on linkers, the order of the positions; unused ones are H or OH. Bridge positions count the residues as written; N and C are the ends. Ends that are not written are not given here. Phenylene(1,4-NHCOCH2)2 = O=C(C[*:1])Nc1ccc(NC(=O)C[*:2])cc1
value_type: interaction data at Target Concentration 1000
When you answer, write just the number.

Write down measured interaction data at Target Concentration 1000 (WWP2^HECT (Homo sapiens, UniProt O00308)) for this sequence. DPATWDCNVAAHRCWFL (linker 7-14 via Phenylene(1,4-NHCOCH2)2 (inferred); not fully specified (C-terminus)) 40

For WWP2^HECT (Homo sapiens, UniProt O00308), give the measured interaction data at Target Concentration 1000 of the entry DPATWDCIWAAERCWRY (linker 7-14 via Phenylene(1,4-NHCOCH2)2 (inferred); not fully specified (C-terminus)) 9

Send back WWP2^HECT (Homo sapiens, UniProt O00308) interaction data at Target Concentration 1000 of DPATWACINAAHNCWRN (DPATWACINAAHNCWRN-NH2; linker 7-14 via Phenylene(1,4-NHCOCH2)2 (inferred)) only. 23

###

# assay_system: CHIP (Homo sapiens)
# Construct: N-term truncated CHIP (also known as STUB1, Uniprot ID: Q9UNE7, residues 23-303); made in house; host or cells: E. coli BL21 CodonPlus
# Sequence (Q9UNE7 23-303): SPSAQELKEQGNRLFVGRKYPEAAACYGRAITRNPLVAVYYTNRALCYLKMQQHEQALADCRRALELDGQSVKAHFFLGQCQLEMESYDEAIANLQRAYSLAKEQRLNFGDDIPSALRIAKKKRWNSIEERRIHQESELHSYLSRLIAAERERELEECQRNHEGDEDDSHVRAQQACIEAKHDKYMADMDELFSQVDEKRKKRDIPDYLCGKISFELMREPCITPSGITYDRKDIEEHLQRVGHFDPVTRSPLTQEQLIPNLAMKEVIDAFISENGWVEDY
# measurement_protocol: Naive Library Presenter Screening (phage, NGS), CHIP
# Type: binding
# settings: CHIP target concentration 100 nM
Numbered stars: 1 amine (or outer) side, 2 acyl side, 3 side chain; on linkers, the order of the positions; unused ones are H or OH. Bridge positions count the residues as written; N and C are the ends. Ends that are not written are not given here. Phenylene(1,4-NHCOCH2)2 = O=C(C[*:1])Nc1ccc(NC(=O)C[*:2])cc1
Kindly state interaction data at Target Concentration 100 for each of the entries shown.
Would you mind answering with just the numeric figure?

// fetch interaction data at Target Concentration 100 for PCFEAWVMCEI (linker 2-9 via Phenylene(1,4-NHCOCH2)2 (inferred)) ; system: CHIP (Homo sapiens) 121

Report measured interaction data at Target Concentration 100 on CHIP (Homo sapiens); entry: ICYTAWLECE (linker 2-9 via Phenylene(1,4-NHCOCH2)2 (inferred)) 5

// fetch interaction data at Target Concentration 100 for PCWDAWMLCTD (linker 2-9 via Phenylene(1,4-NHCOCH2)2 (inferred)) ; system: CHIP (Homo sapiens) 542

Determine reported interaction data at Target Concentration 100 for PMCSDAWLFCE (linker 3-10 via Phenylene(1,4-NHCOCH2)2 (inferred)) ; test system: CHIP (Homo sapiens). 0

Specify interaction data at Target Concentration 100 for ICYSAWLECE (linker 2-9 via Phenylene(1,4-NHCOCH2)2 (inferred)) , system CHIP (Homo sapiens). 13

Give CHIP (Homo sapiens) interaction data at Target Concentration 100 for the following sequence: PCWSAWLACEL (linker 2-9 via Phenylene(1,4-NHCOCH2)2 (inferred)) 72

Answer with interaction data at Target Concentration 100 of PCYSAWITCES (linker 2-9 via Phenylene(1,4-NHCOCH2)2 (inferred)) measured for CHIP (Homo sapiens). 286

Provide interaction data at Target Concentration 100, tested on CHIP (Homo sapiens), for PCWNAWMVCSV (linker 2-9 via Phenylene(1,4-NHCOCH2)2 (inferred)) . 334

###

# assay_system: CHIP (Homo sapiens)
# Construct: N-term truncated CHIP (also known as STUB1, Uniprot ID: Q9UNE7, residues 23-303); made in house; host or cells: E. coli BL21 CodonPlus
# Sequence (Q9UNE7 23-303): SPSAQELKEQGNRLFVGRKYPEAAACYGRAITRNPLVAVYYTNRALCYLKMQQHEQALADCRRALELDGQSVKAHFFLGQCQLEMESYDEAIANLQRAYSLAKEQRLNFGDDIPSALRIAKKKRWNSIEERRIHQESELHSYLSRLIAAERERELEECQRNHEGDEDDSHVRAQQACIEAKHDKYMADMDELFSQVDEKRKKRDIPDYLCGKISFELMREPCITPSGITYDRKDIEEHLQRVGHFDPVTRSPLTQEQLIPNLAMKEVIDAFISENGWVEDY
# measurement_protocol: Naive Library Presenter Screening (phage, NGS), CHIP
# Type: binding
# settings: CHIP clusters (C83, C84); target concentration 1000 nM, first column
# Description: To conduct phage library screening, previously described procedures were utilized in accordance with the present disclosure. Next-generation sequencing was performed as described in accordance with the present disclosure. Hit ID and Clustering is performed according to a described procedure in accordance with the present disclosure.
Numbered stars: 1 amine (or outer) side, 2 acyl side, 3 side chain; on linkers, the order of the positions; unused ones are H or OH. Bridge positions count the residues as written; N and C are the ends. Ends that are not written are not given here. Phenylene(1,4-NHCOCH2)2 = O=C(C[*:1])Nc1ccc(NC(=O)C[*:2])cc1
Please map values of interaction data at Target Concentration 1000 to classes as shown: bucket 1 = under 20, bucket 2 = from 20 up to 30, bucket 3 = 30 and over

Please classify: DPAETFCWDAADICMVD (linker 7-14 via Phenylene(1,4-NHCOCH2)2 (inferred)) bucket 1

Which interaction data at Target Concentration 1000 category applies to DPAMWHCQYAAIMCNAN (DPAMWHCQYAAIMCNAN-NH2; linker 7-14 via Phenylene(1,4-NHCOCH2)2 (inferred)) here? bucket 1

Into which category would you place DPAQDNCHYAAHICMVD (DPAQDNCHYAAHICMVD-NH2; linker 7-14 via Phenylene(1,4-NHCOCH2)2 (inferred)) ? bucket 2

Would you mind sorting DPAEYACYHAASICNVD (linker 7-14 via Phenylene(1,4-NHCOCH2)2 (inferred)) into the appropriate category? bucket 3

For this sequence, which bin applies? DPAFDRCQWAAALCMMN (linker 7-14 via Phenylene(1,4-NHCOCH2)2 (inferred)) bucket 3

GET /class?item= DPALWNCQYAAVMCTQL (linker 7-14 via Phenylene(1,4-NHCOCH2)2 (inferred); not fully specified (C-terminus)) bucket 3

Assign a category based on measured interaction data at Target Concentration 1000 for DPAFWQCQFAAATCAHY (linker 7-14 via Phenylene(1,4-NHCOCH2)2 (inferred)) and give only the class name. bucket 3

Which class is correct for the following sequence? DPANHICHYAAHICDVD (DPANHICHYAAHICDVD-NH2; linker 7-14 via Phenylene(1,4-NHCOCH2)2 (inferred)) bucket 1

Which class holds DPAINMCYRAAQICDVD (linker 7-14 via Phenylene(1,4-NHCOCH2)2 (inferred)) ? bucket 2

Which band does DPAELFCTEAADICMVD (linker 7-14 via Phenylene(1,4-NHCOCH2)2 (inferred)) fall in? bucket 1

Classify this sequence: DPAIIWCSQAASICTVD (linker 7-14 via Phenylene(1,4-NHCOCH2)2 (inferred)) bucket 2

Bin? DPAVRWCAAAAAICMVD (linker 7-14 via Phenylene(1,4-NHCOCH2)2 (inferred); not fully specified (C-terminus)) bucket 1

Note: place this sequence into its band. Item: DPAFEYCQWAAATCQMD (linker 7-14 via Phenylene(1,4-NHCOCH2)2 (inferred)) bucket 3

Lab note: which band did DPAFTRCQFAAAVCNFT (linker 7-14 via Phenylene(1,4-NHCOCH2)2 (inferred)) land in? bucket 1

Assign a bin to DPAFWVCQYAAAMCQDV (linker 7-14 via Phenylene(1,4-NHCOCH2)2 (inferred)) bucket 3

###

# assay_system: MDM2 (Homo sapiens, UniProt Q00987)
# Construct: made in house
# Sequence (Q00987 25-109): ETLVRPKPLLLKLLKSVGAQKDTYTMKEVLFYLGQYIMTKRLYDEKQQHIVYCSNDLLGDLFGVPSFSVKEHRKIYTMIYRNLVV
# measurement_protocol: Naive Library Presenter Screening (phage, NGS), MDM2
# Type: binding
# settings: MDM2 clusters (C82, C85); target concentration 100 nM
Numbered stars: 1 amine (or outer) side, 2 acyl side, 3 side chain; on linkers, the order of the positions; unused ones are H or OH. Bridge positions count the residues as written; N and C are the ends. Ends that are not written are not given here. Phenylene(1,4-NHCOCH2)2 = O=C(C[*:1])Nc1ccc(NC(=O)C[*:2])cc1
Exercise: state measured interaction data at Target Concentration 100 for each of the sequences provided.
Please state the value as a number alone, without comment.

// output interaction data at Target Concentration 100; input DPAVTECFQAAWRCMVM (linker 7-14 via Phenylene(1,4-NHCOCH2)2 (inferred); not fully specified (C-terminus)) ; system MDM2 (Homo sapiens, UniProt Q00987) 184

Check MDM2 (Homo sapiens, UniProt Q00987) data and give interaction data at Target Concentration 100 for DPAERNCFTAAWQCMVW (linker 7-14 via Phenylene(1,4-NHCOCH2)2 (inferred)) . 158

Enter recorded interaction data at Target Concentration 100 with MDM2 (Homo sapiens, UniProt Q00987) for DPAHNLCFDAAWWCHWQ (linker 7-14 via Phenylene(1,4-NHCOCH2)2 (inferred)) here. 9

# assay system MDM2 (Homo sapiens, UniProt Q00987): give interaction data at Target Concentration 100 of DPAHYECTDAAFECYWF (linker 7-14 via Phenylene(1,4-NHCOCH2)2 (inferred)) 33

State interaction data at Target Concentration 100 (MDM2 (Homo sapiens, UniProt Q00987)) of DPAHQQCFMAAWRCVVH (linker 7-14 via Phenylene(1,4-NHCOCH2)2 (inferred)) . 230

# return interaction data at Target Concentration 100 for DPAMSNCFMAAWECLIQ (linker 7-14 via Phenylene(1,4-NHCOCH2)2 (inferred); not fully specified (C-terminus)) , test system: MDM2 (Homo sapiens, UniProt Q00987) 206

Enter measured interaction data at Target Concentration 100, system MDM2 (Homo sapiens, UniProt Q00987), for the sequence shown: DPADRDCFSAAWACVIR (linker 7-14 via Phenylene(1,4-NHCOCH2)2 (inferred)) 188

Find interaction data at Target Concentration 100 for DPASQDCFSAAWQCLQT (DPASQDCFSAAWQCLQT-NH2; linker 7-14 via Phenylene(1,4-NHCOCH2)2 (inferred)) on MDM2 (Homo sapiens, UniProt Q00987) and write it down. 138

Under MDM2 (Homo sapiens, UniProt Q00987), report interaction data at Target Concentration 100 for DPAAQECFRAAWRCMQD (linker 7-14 via Phenylene(1,4-NHCOCH2)2 (inferred)) 25
